experimental-system: ZFP SBS#1025 (synthetic)
Sequence (chain, as listed by the source): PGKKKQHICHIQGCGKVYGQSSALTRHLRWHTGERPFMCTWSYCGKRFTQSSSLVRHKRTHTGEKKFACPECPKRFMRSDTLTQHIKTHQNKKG
run-description: EMSA
details: tags: MBP fusion

binder: GAGGAGGTG (dsDNA) DNA 1: GAGGAGGTG DNA 2: CACCTCCTC
Kd, nM: 0.115

All values here come from patent US20030068675.
